Assay: Association constant at 25 degree C in aqueous media
Format: ADME
Conditions: aqueous media; read-out: pKa
Measure name: pKa

>  <Molecule smiles>
CC(=O)c1cc(F)cc(C(=O)Nc2nnn[nH]2)c1O

>  <Val>
4.2

$$$$

###

System: Rattus norvegicus
Assay: Antiallergic activity in the rat PCA test following iv administration relative to M&B 22,948, the dose of which was 0.1 mg/kg for 100% inhibition
Assay type: functional
Reported Relative activity values follow for various molecules
Measure name: Relative activity

>  <Molecule smiles>
CO/N=C(\C)c1cc(C)cc(NC(=O)c2nn[nH]n2)c1O

>  <Measure name>
Relative activity

>  <Val>
10

$$$$
>  <Molecule smiles>
CCC(=O)c1cc(C)cc(C(=O)Nc2nn[nH]n2)c1O

>  <Measure name>
Relative activity

>  <Val>
2

$$$$
>  <Molecule smiles>
CN(C)S(=O)(=O)c1ccc(O)c(C(=O)Nc2nn[nH]n2)c1

>  <Measure name>
Relative activity

>  <Val>
0.05

$$$$
>  <Molecule smiles>
COc1cc(C)cc(NC(=O)c2nn[nH]n2)c1O

>  <Measure name>
Relative activity

>  <Val>
2.5

$$$$
>  <Molecule smiles>
CC(=O)c1cc([N+](=O)[O-])cc(NC(=O)c2nn[nH]n2)c1O

>  <Measure name>
Relative activity

>  <Val>
5

$$$$
>  <Molecule smiles>
CC(=O)Nc1cc(NC(=O)c2nn[nH]n2)c(O)c(C(C)=O)c1

>  <Measure name>
Relative activity

>  <Val>
0.5

$$$$
>  <Molecule smiles>
CCCc1cc(C(C)=O)c(O)c(C(=O)Nc2nn[nH]n2)c1

>  <Measure name>
Relative activity

>  <Val>
2

$$$$
>  <Molecule smiles>
CCc1cc(C(=O)Nc2nn[nH]n2)c(O)c(/C(C)=N/O)c1

>  <Measure name>
Relative activity

>  <Val>
10

$$$$
>  <Molecule smiles>
CC(=O)c1cc([N+](=O)[O-])cc(C(=O)Nc2nn[nH]n2)c1O

>  <Measure name>
Relative activity

>  <Val>
1

$$$$
>  <Molecule smiles>
Cc1cc(NC(=O)c2nn[nH]n2)c(O)c(C(N)=O)c1

>  <Measure name>
Relative activity

>  <Val>
5

$$$$
>  <Molecule smiles>
CC(=O)Nc1cc(C(C)=O)c(O)c(C(=O)Nc2nn[nH]n2)c1

>  <Measure name>
Relative activity

>  <Val>
0.2

$$$$
>  <Molecule smiles>
CC(=O)c1cc(F)cc(NC(=O)c2nnn[nH]2)c1O

>  <Measure name>
Relative activity

>  <Val>
20

$$$$
>  <Molecule smiles>
COc1cc(C#N)cc(C(=O)Nc2nn[nH]n2)c1O

>  <Measure name>
Relative activity

>  <Val>
2

$$$$
>  <Molecule smiles>
CC(=O)c1cc(NC(=O)c2nn[nH]n2)c(O)c(C(C)=O)c1

>  <Measure name>
Relative activity

>  <Val>
0.5

$$$$
>  <Molecule smiles>
CC(=O)c1cc(Cl)cc(NC(=O)c2nn[nH]n2)c1O

>  <Measure name>
Relative activity

>  <Val>
7

$$$$
>  <Molecule smiles>
CC(=O)c1cc(C(C)(C)C)cc(C(=O)Nc2nn[nH]n2)c1O

>  <Measure name>
Relative activity

>  <Val>
0.4

$$$$
>  <Molecule smiles>
O=C(Nc1nn[nH]n1)c1cc(F)ccc1O

>  <Measure name>
Relative activity

>  <Val>
0.1

$$$$
>  <Molecule smiles>
CC(=O)c1cc(Cl)cc(C(=O)Nc2nn[nH]n2)c1O

>  <Measure name>
Relative activity

>  <Val>
0.05

$$$$
>  <Molecule smiles>
CC(=O)c1ccc(O)c(C(=O)Nc2nn[nH]n2)c1

>  <Measure name>
Relative activity

>  <Val>
0.02

$$$$
>  <Molecule smiles>
CCC(=O)c1cc(CC)cc(C(=O)Nc2nn[nH]n2)c1O

>  <Measure name>
Relative activity

>  <Val>
0.75

$$$$
>  <Molecule smiles>
O=C(Nc1nn[nH]n1)c1cc([N+](=O)[O-])ccc1O

>  <Measure name>
Relative activity

>  <Val>
0.5

$$$$
>  <Molecule smiles>
Cc1cc(NC(=O)c2nn[nH]n2)c(O)c(C(=O)N(C)C)c1

>  <Measure name>
Relative activity

>  <Val>
1

$$$$
>  <Molecule smiles>
CC(=O)c1cc(F)cc(C(=O)Nc2nnn[nH]2)c1O

>  <Measure name>
Relative activity

>  <Val>
0.5

$$$$
>  <Molecule smiles>
CCC(=O)c1cc(C#N)cc(NC(=O)c2nn[nH]n2)c1O

>  <Measure name>
Relative activity

>  <Val>
5

$$$$
